Test system: OVCAR-4 ovarian
test-name: NCI-60 one-dose screen, 48 h
condition-summary: 10 µM
This is part of a sample that, as a whole, favours compounds with a hit. Of some 83,000 tested, about 20% had one in any assay. Calls of active or inactive are those of the source. How the source made its calls: active means growth percent below 10; inactive means the rest.
Respond using exactly one of the listed classes: y for active, n for inactive

Solved entries:
COc1cc(/C=C/C(=O)c2ccc(C(F)(F)F)cc2)ccc1Oc1nc(Nc2ccc(F)cc2)nc(N(C)C)n1 n
COc1ccc(-c2cc(-c3cc(C(=O)c4ccc(Br)cc4)n4ccc(C)cc34)nc(N)c2C#N)cc1 n
COC(=O)C[C@](O)(CCCC(C)(C)O)C(=O)O[C@H]1C(OC)=C[C@@]23CCC(=O)N2CCc2cc4c(cc2[C@@H]13)OCO4 n

What was the test verdict on "CN1CCO/C1=C(/NC(=O)c1ccc(Cl)cc1)[P+](c1ccccc1)(c1ccccc1)c1ccccc1" ?
n

What was the test verdict on "N#Cc1c(NC(=O)c2ccc(C(F)(F)F)cc2)sc2c1CCC(=O)C2" ?
y

What was the test verdict on "COc1ccc2[nH]cc(/C=N/Nc3cccc(Cl)n3)c2c1" ?
n
